target: Retinoic acid receptor RXR-alpha (Homo sapiens); assay: Antagonist activity at RXRalpha expressed in african green monkey COS1 cells assessed as inhibition of LGD-1069-induced agonist activity
value-type: pIC50
# pIC50 is unitless: minus log10 of the molar concentration; print number only

smiles_str=CC1(C)CCC(C)(C)c2cc(N(c3ccc(C(=O)O)cn3)S(=O)(=O)c3ccc(C(F)(F)F)cc3)ccc21 value_type=pIC50 assay_result=5.49

The recorded pIC50 for entry COc1ccc(S(=O)(=O)N(c2ccc3c(c2)C(C)(C)CCC3(C)C)c2ccc(C(=O)O)cn2)cc1 equals 5.57

====

Target: Retinoic acid receptor RXR-alpha (Homo sapiens)
Sequence (P19793 whole entry): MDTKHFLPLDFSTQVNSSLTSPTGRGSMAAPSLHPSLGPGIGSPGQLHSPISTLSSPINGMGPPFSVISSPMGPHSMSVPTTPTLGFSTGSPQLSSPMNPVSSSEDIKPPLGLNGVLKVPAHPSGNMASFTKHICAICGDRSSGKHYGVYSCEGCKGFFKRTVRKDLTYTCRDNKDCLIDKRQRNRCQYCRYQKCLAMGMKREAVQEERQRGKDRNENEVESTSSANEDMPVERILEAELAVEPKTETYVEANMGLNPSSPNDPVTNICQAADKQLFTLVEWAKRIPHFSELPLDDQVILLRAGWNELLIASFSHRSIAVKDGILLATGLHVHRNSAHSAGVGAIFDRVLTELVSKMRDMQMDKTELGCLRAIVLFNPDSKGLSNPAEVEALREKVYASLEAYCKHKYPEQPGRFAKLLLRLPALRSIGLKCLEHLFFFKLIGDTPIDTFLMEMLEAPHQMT
Assay: Antagonist activity at RXRalpha expressed in african green monkey COS1 cells assessed as inhibition of LGD-1069-induced agonist activity
value-type: pIC50
# pIC50 is unitless: minus log10 of the molar concentration; print number only

The recorded pIC50 for entry CC1(C)CCC(C)(C)c2cc(N(c3ccc(C(=O)O)cn3)S(=O)(=O)c3ccc(Cl)cc3)ccc21 equals 5.39

The recorded pIC50 for entry Cc1ccc(S(=O)(=O)N(c2ccc3c(c2)C(C)(C)CCC3(C)C)c2ccc(C(=O)O)cn2)cc1 equals 5.28

====

target: Retinoic acid receptor RXR-gamma (Homo sapiens, UniProt P48443); test: Antagonist activity at RXRgamma expressed in african green monkey COS1 cells assessed as inhibition of LGD-1069-induced agonist activity
Sequence (P48443 whole entry): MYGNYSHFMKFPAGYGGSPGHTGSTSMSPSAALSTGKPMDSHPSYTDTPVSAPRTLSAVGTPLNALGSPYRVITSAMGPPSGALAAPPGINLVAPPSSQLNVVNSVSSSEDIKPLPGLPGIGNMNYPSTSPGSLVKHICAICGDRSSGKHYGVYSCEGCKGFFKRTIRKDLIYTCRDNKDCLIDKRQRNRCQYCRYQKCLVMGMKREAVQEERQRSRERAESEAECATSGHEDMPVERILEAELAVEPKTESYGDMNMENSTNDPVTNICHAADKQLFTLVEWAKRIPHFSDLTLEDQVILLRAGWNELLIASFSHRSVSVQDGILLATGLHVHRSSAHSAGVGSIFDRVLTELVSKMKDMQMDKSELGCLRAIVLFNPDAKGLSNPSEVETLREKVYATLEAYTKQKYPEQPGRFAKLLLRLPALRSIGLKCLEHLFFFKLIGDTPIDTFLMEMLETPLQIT
pIC50: −log10 of the molar value.
value-type: pIC50

Solved entries (count: 2):
smiles_str=CCCCS(=O)(=O)N(c1ccc2c(c1)C(C)(C)CCC2(C)C)c1ccc(C(=O)O)cn1 value_type=pIC50 assay_result="< 5.00"
smiles_str=CC1(C)CCC(C)(C)c2cc(N(c3ccc(C(=O)O)cn3)S(=O)(=O)c3ccc([N+](=O)[O-])cc3)ccc21 value_type=pIC50 assay_result="< 5.00"

Note: attention shifts to another entry.
The recorded pIC50 for entry CC1(C)CCC(C)(C)c2cc(N(c3ccc(C(=O)O)cn3)S(=O)(=O)c3ccccc3)ccc21 equals < 5.00
